Listed here are compounds together with their documented ED50.
system: Amphetamine Stereotypy; assay: Antagonism of Amphetamine Stereotypy in Rats (ED50 for blocking characteristic amphetamine cage movement); assay type: in vivo; settings: Rattus norvegicus, ip, 1 h; i.p.; Part B; read-out: ED50, 1 Hr.
Counter-ions that a name gives are not always drawn.

[
  {
    "compound": "OC(CCCN1CC[C@H]2[C@H](C1)c1cc(F)ccc1N2c1ccc(F)cc1)c1ccc(F)cc1 (relative stereo) [drawing 37, hydrochloride]",
    "ED50": "0.032 to 0.1 mg/kg"
  },
  {
    "compound": "OC(CCCN1CCc2c(c3ccccc3n2-c2ccccc2)C1)c1ccccc1 (centres unmarked) [drawing 40 (a), reference compound]",
    "ED50": "3.2 to 10 mg/kg"
  },
  {
    "compound": "OC(CCCN1CCc2c(c3cc(F)ccc3n2-c2ccccc2F)C1)c1ccc(F)cc1 (centres unmarked) [drawing 43 (a), reference compound]",
    "ED50": "0.32 to 1 mg/kg"
  }
]

Task item: Quick one: give measured ED50 for O=C(CCCN1CCc2c(c3cc(F)ccc3n2-c2ccc(F)cc2)C1)c1ccc(F)cc1 [drawing 42 (a), reference compound]
Reply: 3.2 to 10 mg/kg

Task item: Quick one: give measured ED50 for OC(CCCN1CC[C@H]2[C@H](C1)c1ccccc1N2c1ccccc1)c1ccccc1 (relative stereo)
Reply: 0.032 to 0.1 mg/kg

Task item: Quick one: give measured ED50 for O=C(CCCN1CC[C@H]2[C@H](C1)c1cc(F)ccc1N2c1ccc(F)cc1)c1ccc(F)cc1 (relative stereo)
Reply: < 1 mg/kg

Task item: Quick one: give measured ED50 for OC(CCCN1CCc2c(c3cc(F)ccc3n2-c2ccc(F)cc2)C1)c1ccc(F)cc1 (centres unmarked) [drawing 41 (a), hydrochloride, reference compound]
Reply: 0.1 to 0.32 mg/kg

Task item: Quick one: give measured ED50 for OC(CCCN1CC[C@@H]2[C@@H](C1)c1cc(F)ccc1N2c1ccccc1F)c1ccc(F)cc1 (relative stereo)
Reply: 0.1 to 0.32 mg/kg

----------
Listed here are molecules together with their documented pIC50.
molecular target: dopamine receptors (Rattus norvegicus)
Sequence (P61169 whole entry): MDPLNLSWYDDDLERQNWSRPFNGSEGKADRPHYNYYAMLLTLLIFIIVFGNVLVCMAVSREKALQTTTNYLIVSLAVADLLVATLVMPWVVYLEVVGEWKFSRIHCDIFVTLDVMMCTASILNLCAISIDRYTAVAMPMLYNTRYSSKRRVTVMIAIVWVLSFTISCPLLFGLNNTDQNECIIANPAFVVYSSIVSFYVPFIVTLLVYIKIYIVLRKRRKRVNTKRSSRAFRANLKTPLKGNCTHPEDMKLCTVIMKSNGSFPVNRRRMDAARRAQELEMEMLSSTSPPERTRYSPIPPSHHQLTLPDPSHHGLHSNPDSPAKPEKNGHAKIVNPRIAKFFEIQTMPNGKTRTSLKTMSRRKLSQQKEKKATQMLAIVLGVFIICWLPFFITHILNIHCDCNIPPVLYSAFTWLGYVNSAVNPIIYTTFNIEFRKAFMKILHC
Counter-ions that a name gives are not always drawn.
pIC50 field: float, defined as -log10 of concentration (mol/L).

A selection of reference data follows.
[
  {
    "molecule": "OC(CCCN1CC[C@@H]2[C@@H](C1)c1cc(F)ccc1N2c1ccc(F)cc1)c1ccc(F)cc1 (single isomer, unassigned) [γ, hydrochloride]",
    "pIC50": 7.60
  },
  {
    "molecule": "OC(CCCN1CC[C@H]2[C@H](C1)c1cc(F)ccc1N2c1ccc(F)cc1)c1ccc(F)cc1 (relative stereo) [αβγδ, hydrochloride]",
    "pIC50": 7.68
  }
]

Task item: Give measured pIC50 for OC(CCCN1CC[C@@H]2[C@@H](C1)c1cc(F)ccc1N2c1ccc(F)cc1)c1ccc(F)cc1 (single isomer, unassigned) [δ, hydrochloride] (dopamine receptors (Rattus norvegicus)).
Reply: 6.46

Value source: patent US4224329A
